Experiment: self-splicing fitness, log relative to wild type (ln ratio); higher = more splicing; Tetrahymena group I intron in knt gene, E. coli kanamycin selection, DiMSum; sequences stand for … in CUCUCU…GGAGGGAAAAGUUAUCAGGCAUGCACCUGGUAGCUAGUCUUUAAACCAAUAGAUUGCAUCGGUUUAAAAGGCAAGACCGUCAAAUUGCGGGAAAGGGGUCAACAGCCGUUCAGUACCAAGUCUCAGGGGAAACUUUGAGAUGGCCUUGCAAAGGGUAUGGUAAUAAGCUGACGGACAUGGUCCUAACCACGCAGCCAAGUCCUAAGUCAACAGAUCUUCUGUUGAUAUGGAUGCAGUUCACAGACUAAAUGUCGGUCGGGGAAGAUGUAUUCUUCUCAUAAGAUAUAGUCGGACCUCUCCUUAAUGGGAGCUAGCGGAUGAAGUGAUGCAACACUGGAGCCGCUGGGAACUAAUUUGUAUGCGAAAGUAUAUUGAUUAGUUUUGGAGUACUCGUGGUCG;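 further: selection with 25 µg/mL kanamycin versus none on LB agar overnight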
Conditions: 37 °C
Rule: y for self-splicing fitness (ln) not less than -1, n for anything less.

Check out these entries, answers already filled in.
GAGAAGCAAUAUUACGAGCC :: y
GUAUAGCAAUAUUACGAAAU :: n
GUUCAGCAAUAUUACGAAUU :: n
ACUUAGCAAUAUUACGGCAU :: y
CCAUAGCAAUAUUACGAUGA :: y

Let us examine a further case.
Please check the record "CACUAGCAAUAUUACGUGGU" and state if its self-splicing fitness (ln) is at or above -1. n

###

Assay: self-splicing fitness, log relative to wild type (ln ratio); higher = more splicing; Tetrahymena group I intron in knt gene, E. coli kanamycin selection, DiMSum; sequences stand for … in CUCUCU…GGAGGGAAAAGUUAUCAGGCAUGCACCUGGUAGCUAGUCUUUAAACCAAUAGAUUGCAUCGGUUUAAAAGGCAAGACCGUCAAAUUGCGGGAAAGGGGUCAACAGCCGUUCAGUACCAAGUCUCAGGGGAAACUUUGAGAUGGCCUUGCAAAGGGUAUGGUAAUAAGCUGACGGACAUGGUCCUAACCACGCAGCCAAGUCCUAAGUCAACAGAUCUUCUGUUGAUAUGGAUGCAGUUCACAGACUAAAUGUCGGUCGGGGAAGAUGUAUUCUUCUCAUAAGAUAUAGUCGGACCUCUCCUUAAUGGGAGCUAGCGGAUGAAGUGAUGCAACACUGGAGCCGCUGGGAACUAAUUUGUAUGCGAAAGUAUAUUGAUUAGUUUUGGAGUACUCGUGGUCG
Details: 30 °C
reported-metric: self-splicing fitness (ln)
Simply state the number, no unit and no words.

Consider the following illustrative entries.
CUAUAGCAAUAUUACGAGUC :: -2.61
ACGUAGCAAUAUUACGUAAA :: -3.11
GGAAAGCAAUAUUACGGGAU :: -2.64
CGUUAGCAAUAUUACGCUUG :: -1.71
CUCUAGCAAUAUUACGCUGC :: -3.58

Entry "UUCGAGCAAUAUUACGCAUA" , self-splicing fitness (ln) reported as -3.18

Entry "CCAGAGCAAUAUUACGACUU" , self-splicing fitness (ln) reported as -3.55

Entry "GGUAAGCAAUAUUACGACUC" , self-splicing fitness (ln) reported as 0.295

Entry "AAUUAGCAAUAUUACGUAGU" , self-splicing fitness (ln) reported as -2.9

Entry "ACAAAGCAAUAUUACGAGCA" , self-splicing fitness (ln) reported as -1.56

Entry "AAAGAGCAAUAUUACGGCAU" , self-splicing fitness (ln) reported as -1.83

Entry "UCGUAGCAAUAUUACGUGGG" , self-splicing fitness (ln) reported as -3.54

Entry "GGAAAGCAAUAUUACGCGAC" , self-splicing fitness (ln) reported as -2.95

Entry "GCCAAGCAAUAUUACGAGCU" , self-splicing fitness (ln) reported as -1.35

Entry "UUAAAGCAAUAUUACGCGUG" , self-splicing fitness (ln) reported as -0.256

Entry "GGCAAGCAAUAUUACGCGUU" , self-splicing fitness (ln) reported as -0.907

Entry "GUGAAGCAAUAUUACGUUUU" , self-splicing fitness (ln) reported as -4.1
